pKi: −log10 of the molar value.
pKi values for Adenosine receptor A2b (Homo sapiens), compiled from several publications.

{"structure": "N#Cc1c(-c2ccccc2)cc(SCc2ncc[nH]2)nc1N", "testedTarget": "Adenosine receptor A2b (Homo sapiens)", "censoringSign": "=", "pKi": 6.43}
{"structure": "Nc1nc2ccccc2n2nc(-c3ccco3)nc12", "testedTarget": "Adenosine receptor A2b (Homo sapiens)", "censoringSign": "=", "pKi": 7.88}
{"structure": "CCCn1c(=O)c2[nH]c(-c3ccc(OCC(=O)c4c(NC(=O)O)[nH]c(=O)n(C)c4=O)cc3)cc2n(CCC)c1=O", "testedTarget": "Adenosine receptor A2b (Homo sapiens)", "censoringSign": "=", "pKi": 7.66}
{"structure": "O=C(Nc1ccc(-c2ccncc2)c(-c2ccncn2)n1)C1CC1", "testedTarget": "Adenosine receptor A2b (Homo sapiens)", "censoringSign": "=", "pKi": 6.68}
{"structure": "N#Cc1c(-c2ccc(O)cc2)cc(-c2ccco2)nc1N", "testedTarget": "Adenosine receptor A2b (Homo sapiens)", "censoringSign": "=", "pKi": 6.43}
{"structure": "COc1cc(-c2nc(NC(C)=O)sc2-c2ccncc2)cc(OC)c1OC", "testedTarget": "Adenosine receptor A2b (Homo sapiens)", "censoringSign": "=", "pKi": 5.49}
{"structure": "CC(C)Cn1c(=O)c2[nH]c(-c3cnn(Cc4cccc(C(F)(F)F)c4)c3)nc2n(CC(C)C)c1=O", "testedTarget": "Adenosine receptor A2b (Homo sapiens)", "censoringSign": "=", "pKi": 6.52}
{"structure": "CCn1c(=O)c2[nH]c(-c3ccc[nH]3)nc2n(CCCOC)c1=O", "testedTarget": "Adenosine receptor A2b (Homo sapiens)", "censoringSign": "=", "pKi": 7.07}
{"structure": "Cn1c(=O)c2c(nc3n2CCCN3CCNCc2ccccc2)n(C)c1=O", "testedTarget": "Adenosine receptor A2b (Homo sapiens)", "censoringSign": "<", "pKi": 5.00}
{"structure": "COc1cc(-c2cc3c([nH]2)c(=O)n(C)c(=O)n3C)ccc1OCC(=O)Nc1ccc(C#N)cc1", "testedTarget": "Adenosine receptor A2b (Homo sapiens)", "censoringSign": "=", "pKi": 6.67}
